The measurements presented in this section are drawn from PubChem BioAssay.

molecular target: Calmodulin-1 (Homo sapiens); experiment: small molecules binding calmodulin-1 with EGTA – biochemical, small-molecule microarray, Cy5-labelled CALM1, profiling panel (AID 1111); conditions: Cy5-CALM1 binding fluorescence, higher = more signal;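 note: labelled calmodulin applied in Tris saline Tween buffer holding calcium plus EGTA and DTT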
We use -0.5 as the dividing line for composite z-score: on or above the line is true (1), below is false (0).

1. O=C1O[C@@H](c2ccccc2)[C@@H](c2ccccc2)N2[C@@H](c3ccccc3OCCO)[C@]3(C(=O)Nc4ccc(C#CC5(O)CCCCCC5)cc43)[C@@H](C(=O)N3CCN(c4ncccn4)CC3)[C@H]12: true (1)
2. CC(=O)NCCCC[C@@H]1NC(=O)[C@H]2C[C@@H](C(=O)NCCCCCNC(=O)CS)[C@@H](c3ccc(O)cc3)N2C1=O: true (1)
3. C=C(CCCC)C(=O)CC[C@@H](OC(C)=O)c1ccc(CO)o1: false (0)
4. CC(C)[Si](C#CCCCC#N)(O[C@H](c1ccccc1)c1cn(Cc2cccc(Cl)c2)nn1)C(C)C: true (1)
5. C=CCOC(=O)[C@H]1[C@@H]2C(=O)O[C@@H](c3ccccc3)[C@@H](c3ccccc3)N2[C@@H](c2ccc(OCCOC(=O)[C@H]3C[C@H]4C(=O)N[C@@H](CCCCN(C)C)C(=O)N4[C@H]3c3cccc(OCCO)c3)cc2)[C@]12C(=O)Nc1ccc(I)cc12: true (1)
6. C#CCN1[C@@H](Cc2ccc(O)cc2)C(=O)O[C@H](Cc2ccccc2)[C@@H]1/C=C/C1CC1: true (1)
